- target: JAK3: Recombinant human kinase domain (Homo sapiens, UniProt P52333)
- Sequence (P52333 822-1111 limits assumed): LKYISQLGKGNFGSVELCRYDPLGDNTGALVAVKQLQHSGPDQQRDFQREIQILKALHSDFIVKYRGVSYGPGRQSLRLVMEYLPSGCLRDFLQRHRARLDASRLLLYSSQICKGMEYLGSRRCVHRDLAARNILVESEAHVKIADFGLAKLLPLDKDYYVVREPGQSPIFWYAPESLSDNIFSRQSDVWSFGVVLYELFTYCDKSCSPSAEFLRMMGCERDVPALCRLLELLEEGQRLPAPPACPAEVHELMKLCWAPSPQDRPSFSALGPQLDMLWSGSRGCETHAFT
- test-details: Determination of IC50 of Janus Kinase (JAK) Inhibition (radioactive end-point 33P-ATP kinase assay)
pIC50: −log10 of the molar value.
experimental-endpoint: pIC50

# input Give pIC50 (JAK3: Recombinant human kinase domain (Homo sapiens, UniProt P52333)) of the following compound: CC1(C(=O)c2c[nH]c3ncc(-c4ccc(C(=O)N5CCC(O)C5)s4)nc23)CCCCC1 (stereo not drawn) [Compound I-74]
# output 7.55

I. CN(CCO)C(=O)c1ccc(-c2cnc3[nH]cc(C(=O)C4(C)CCCCC4)c3n2)s1 [Compound I-73]
II. CN(CC#N)C(=O)c1cc(-c2cnc3[nH]cc(C(=O)C4(C)CCCCC4)c3n2)cs1 [Compound I-40]
# input Of I and II , which shows the smaller pIC50 value? Identify your pick by its label.
# output II

---

melting point values for the compounds below.

In the examples that follow, each entry is paired with its recorded melting point.
# input Fill in the blank: the reported melting point of COc1cncc(-c2cnc3[nH]cc(C(=O)C(C)(C)C)c3n2)c1 [Compound I-6] is ____.
# output 215 to 223.6 °C

# input Value lookup for melting point; key = CC(C)(C)C(=O)c1c[nH]c2ncc(-n3ccnc3)nc12 [Compound I-107]
# output 215 to 217 °C

# input Would you kindly share the measured melting point for CC(C)(C)C(=O)c1c[nH]c2ncc(-c3cn(S(=O)(=O)c4ccccc4)c4ccccc34)nc12 [Compound I-1] ?
# output 267 to 268 °C

# input Fill blank: measured melting point of the compound CN(C)C1CCN(c2cc(-c3cnc4[nH]cc(C(=O)C(C)(C)C)c4n3)ccn2)C1 (stereo not drawn) [Compound I-14] is ____.
# output 226 to 228 °C

# input Sample CC(=O)N1CCN(c2cc(-c3cnc4[nH]cc(C(=O)C(C)(C)C)c4n3)ccn2)CC1 [Compound I-5] — what was its melting point?
# output 257 to 260 °C

Others:
# input Suppose we examine the compound CC(C)(C)C(=O)c1c[nH]c2ncc(-c3cn(C4CCCC4)nn3)nc12 [Compound I-12] ; what melting point value has been reported?
# output 193.3 to 199.3 °C

---

experimental-endpoint: melting point

Recorded results for 10 molecules are shown here.
# input Param item = `CC(C)(C)C(=O)c1c[nH]c2ncc(-c3ccnc(N4CCCCC4)c3)nc12` ; retrieve measured melting point.
# output 250 to 251 °C

# input Look at this molecule and give its reported melting point. CC(C)NC(=O)c1c[nH]c2ncc(N3CCCC(N(C)C(=O)OC(C)(C)C)C3)nc12 (stereo not drawn)
# output 251 to 252 °C

# input Give the measured melting point of `CC(C)(C)C(=O)c1c[nH]c2ncc(-n3ccc4ccccc43)nc12` .
# output 205 to 207 °C

# input Which melting point reading was recorded for the molecule CC1CCCN1c1cc(-c2cnc3[nH]cc(C(=O)C(C)(C)C)c3n2)ccn1 (stereo not drawn) ?
# output 220 to 221 °C

# input molecule: `CC(C)(C)C(=O)c1c[nH]c2ncc(-c3ccc(C(=O)NC4CCCC4)s3)nc12` ; wanted: its melting point
# output > 300 °C

# input # query: melting point of entry `Cc1nccn1-c1cnc2[nH]cc(C(=O)C(C)(C)C)c2n1`
# output 247 to 249 °C

# input Suppose we examine the molecule `CC(C)(C)C(=O)c1c[nH]c2ncc(-c3ccnc(N4CCCC4)c3)nc12` ; what melting point value has been reported?
# output 275.1 to 276.4 °C

# input Entry under review: `CCOC(=O)c1cc2cc(C3=C(c4cnc5[nH]cc(C(=O)C(C)(C)C)c5n4)CCC3)ccc2[nH]1` . Reported melting point?
# output 278 to 280 °C

# input So what does the record say about melting point for `CC(C)(C)C(=O)c1c[nH]c2ncc(-c3ccc(C(=O)NC4CCOCC4)s3)nc12` ?
# output > 300 °C

# input For CNC1CCCN(c2cnc3[nH]cc(C(=O)NC(C)C)c3n2)C1 (stereo not drawn) , what is its reported melting point?
# output 54 to 64 °C

Below: the item to evaluate.
# input Record request: melting point value, item `CC1=NCCN1c1cnc2[nH]cc(C(=O)C(C)(C)C)c2n1`
# output 235 to 236 °C

Data origin: patent US7939531B2
